These entries and their values trace back to PubChem BioAssay AID493183.

Target: Apelin receptor (Homo sapiens) (UniProt P35414)
Sequence (P35414 whole entry, looked up): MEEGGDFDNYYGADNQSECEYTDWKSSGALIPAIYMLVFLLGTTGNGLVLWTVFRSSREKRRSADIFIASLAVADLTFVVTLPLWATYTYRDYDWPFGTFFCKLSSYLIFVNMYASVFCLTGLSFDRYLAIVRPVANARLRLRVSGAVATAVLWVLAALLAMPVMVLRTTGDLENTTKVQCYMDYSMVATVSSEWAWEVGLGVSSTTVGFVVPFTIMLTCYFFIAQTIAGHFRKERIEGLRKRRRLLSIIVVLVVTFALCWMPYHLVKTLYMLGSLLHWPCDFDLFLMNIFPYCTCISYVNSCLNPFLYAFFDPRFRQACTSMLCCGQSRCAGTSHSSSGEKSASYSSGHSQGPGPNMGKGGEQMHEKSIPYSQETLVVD
Test: APJ receptor agonists, beta-arrestin recruitment, SAR follow-up, cell-based, CHO-K1 AGTRL-1, PathHunter luminescence, set 4 (AID 493183)
Settings: CHO-K1 AGTRL-1 PathHunter beta-arrestin
Active and inactive are the calls of the source.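 Rule for the calls: active = mean EC50 below 10 µM; inactive = the rest.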
Classes used: active, inactive

{"columns": ["SMILES NOTATION", "TESTED ON", "CATEGORY"],
 "data": [
  ["O=S(=O)(Nc1cc(Cl)c(O)c(Cl)c1)c1ccccc1", "Apelin receptor (Homo sapiens) (UniProt P35414)", "inactive"],
  ["CC1=CC(=O)C(C(C)C)=C/C1=N/OS(=O)(=O)c1cccnc1", "Apelin receptor (Homo sapiens) (UniProt P35414)", "active"],
  ["Cc1cc(O)c(C(C)C)cc1NS(=O)(=O)c1ccccc1", "Apelin receptor (Homo sapiens) (UniProt P35414)", "inactive"],
  ["CC1=CC(=O)C(C(C)C)=C/C1=N/OS(=O)(=O)c1ccc(C(F)(F)F)cc1", "Apelin receptor (Homo sapiens) (UniProt P35414)", "active"],
  ["CC1=CC(=O)C(C(C)C)=C/C1=N/OS(=O)(=O)c1ccc(OC(F)(F)F)cc1", "Apelin receptor (Homo sapiens) (UniProt P35414)", "active"],
  ["COC(=O)c1cc(NS(=O)(=O)c2ccccc2)ccc1O", "Apelin receptor (Homo sapiens) (UniProt P35414)", "inactive"],
  ["CC1=CC(=O)C(C(C)C)=C/C1=N/OS(=O)(=O)c1ccc(C(C)(C)C)cc1", "Apelin receptor (Homo sapiens) (UniProt P35414)", "inactive"]
]}
